System: SNB-78 CNS
Assay: NCI tumour cell line growth inhibition, 48 h
Below: a set of entries, each annotated with reported TGI.

| COMPOUND | TGI |
| --- | --- |
| Cc1ccc(C(=O)OC(C)C)cc1N=NN(C)C | > 100 µM |

Query string: So what's the measured TGI for this one? CN(C)CCNC(=O)c1cccc2ccc(-c3cccnc3)nc12
Result string: 72.4 µM

Query string: Recorded TGI for Nc1ccc2ncc(Nc3ccc(F)cc3)nc2c1 , please?
Result string: > 100 µM

---

Catalogue of TGI readings, one per entry.
Tested on: NCI-H226 lung
Assay: NCI tumour cell line growth inhibition, 48 h

| COMPOUND | TGI |
| --- | --- |
| Cc1cccc(Cl)c1NC(N)=S | > 100 µM |
| O=[N+]([O-])c1cccc(/C=C/c2ccccn2)c1 | > 100 µM |
| CC(C)(Cl)C(Br)CCC(CBr)=C(Cl)CCl (mixture of isomers) | > 2.46 µM |

Query string: Dear colleague, I am looking for the recorded TGI of the following compound: CCCCNC(=O)OCC(COc1ccccc1OC)OC(=O)NCCCC (centres undefined)
Result string: > 100 µM

Query string: For COc1cc(OC)cc(-n2c(N)c(-c3nc4ccccc4s3)c3ccc([N+](=O)[O-])cc3c2=O)c1 , what is its reported TGI?
Result string: > 100 µM

Query string: Dear colleague, I am looking for the recorded TGI of the following compound: C/C(=C1/N=C(c2ccccc2)OC1=O)c1ccc(C)cc1
Result string: > 100 µM

Query string: What measured TGI goes with C[N+]1(C)CCOC(O)(c2ccccc2)C1 (centres undefined) ?
Result string: > 100 µM

Query string: # lookup: TGI of C=CCOc1ccc(C2(c3ccc(OCC=C)cc3)C(=O)Nc3ccccc32)cc1
Result string: > 10 µM

Query string: // lookup TGI for CNS(=O)(=O)c1ccccc1C(=N)c1ccccc1
Result string: > 100 µM

Reference source: PubChem BioAssay (NCI)
